# System: Escherichia coli MC4100 harboring the IMP4213
# method_description: MIC, broth micro-dilution technique (CLSI)
# Format: cell-based
# recorded_conditions: Table 1 protocol: serial 2-fold dilutions starting from 64 μg/ml; 35° C., 22 hours
Could you mark each record True if its MIC (μg/mL) E. coli falls strictly under 30 µg/mL, and False if it equals or exceeds it?

>  <compound>
C[C@@H]1NC(=O)[C@@H](N(C)C(=O)[C@H](CCCCN)NC(=O)c2ccc(-c3ccc(Cl)cc3)cc2)c2ccc(O)c(c2)-c2cc(ccc2O)C[C@@H](C(=O)N[C@@H](C)C(=O)N2CCCC23CCNC3=O)NC1=O (stereo partly shown) [Compound 161]

>  <discrete_label>
False

$$$$
>  <compound>
CCCCCCCCCCNCCC(=O)N[C@@H](CCCCN)C(=O)N(C)[C@@H]1C(=O)N[C@@H](C)C(=O)N[C@H](C(=O)N[C@@H](C)C(C)=O)Cc2ccc(OCCN)c(c2)-c2cc1ccc2OCCN.O=CO [Compound 270]

>  <discrete_label>
True

$$$$
>  <compound>
C[C@@H]1NC(=O)[C@@H](N(C)C(=O)[C@H](CCCCN)NC(=O)c2ccc(-c3ccc(Cl)cc3)cc2)c2ccc(O)c(c2)-c2cc(ccc2O)C[C@@H](C(=O)N[C@@H](C)C(=O)C(F)(F)C(=O)O)NC1=O [Compound 152]

>  <discrete_label>
True

$$$$
>  <compound>
CCCCCCCCCCCCCC(=O)NC(CCCCN)C(=O)N(C)C1C(=O)NC(C)C(=O)NC(C(=O)NC(C)B2OC3CC4CC(C4(C)C)C3(C)O2)Cc2ccc(OCCN)c(c2)-c2cc1ccc2OCCN (stereo not shown) [Compound 314]

>  <discrete_label>
True

$$$$
>  <compound>
CC1OC1C(=O)[C@H](C)NC(=O)[C@@H]1Cc2ccc(O)c(c2)-c2cc(ccc2O)[C@H](N(C)C(=O)[C@H](CCCCN)NC(=O)c2ccc(-c3ccc(Cl)cc3)cc2)C(=O)N[C@@H](C)C(=O)N1 (stereo partly shown) [Compound 106]

>  <discrete_label>
True

$$$$

Q: Lab note: confirm whether the reported MIC (μg/mL) E. coli for this compound is below 30 µg/mL, equality not counting. compound: CCCCCCCCCCNCC(=O)N[C@@H](CCCCN)C(=O)N(C)[C@@H]1C(=O)N[C@@H](C)C(=O)N[C@H](C(=O)N[C@@H](C)C(C)=O)Cc2ccc(O)c(c2)-c2cc1ccc2O [Compound 112]
A: False

Q: Lab note: confirm whether the reported MIC (μg/mL) E. coli for this compound is below 30 µg/mL, equality not counting. compound: C[C@@H]1NC(=O)[C@@H](N(C)C(=O)[C@H](CCCCN)NC(=O)c2ccc(-c3ccc(Cl)cc3)cc2)c2ccc(O)c(c2)-c2cc(ccc2O)C[C@@H](C(=O)NCC(=O)CC2CCNC2=O)NC1=O (stereo partly shown) [Compound 150]
A: True

Q: Lab note: confirm whether the reported MIC (μg/mL) E. coli for this compound is below 30 µg/mL, equality not counting. compound: CCCCCCCC(=O)NCCC(=O)N[C@@H](CCCCN)C(=O)N(C)[C@@H]1C(=O)N[C@@H](C)C(=O)N[C@H](C(=O)N[C@@H](C)C(=O)C2CO2)Cc2ccc(O)c(c2)-c2cc1ccc2O (stereo partly shown) [Compound 102]
A: False

Q: Lab note: confirm whether the reported MIC (μg/mL) E. coli for this compound is below 30 µg/mL, equality not counting. compound: C[C@@H]1NC(=O)[C@@H](N(C)C(=O)[C@H](CCCCN)NC(=O)c2ccc(-c3ccc(Cl)cc3)cc2)c2ccc(O)c(c2)-c2cc(ccc2O)C[C@@H](C(=O)NCC(=O)CC2CCNC2=O)NC1=O (stereo partly shown) [Compound 151]
A: False

Q: Lab note: confirm whether the reported MIC (μg/mL) E. coli for this compound is below 30 µg/mL, equality not counting. compound: CCCCCCCCCCNCCC(=O)N[C@@H](CCCCN)C(=O)N(C)[C@@H]1C(=O)N[C@@H](C)C(=O)N[C@H](C(=O)N[C@@H](C)C(=O)N2CCC[C@H]2C(N)=O)Cc2ccc(O)c(c2)-c2cc1ccc2O.O=CO [Compound 155]
A: False
